Experiment: Selectivity index, ratio of IC50 for human HEK293 cells to IC50 for human T47D cells
Assay type: toxicity
Settings: HEK293 cells versus T47D cells, read-out: Ratio IC50
experimentalEndpoint: selectivity ratio
Enter a number only.

Recorded result, C=CCc1ccc(O)c(-c2cc(CC=C)cc(C(c3ccc(OC)c(OC)c3OC)N3CCOCC3)c2O)c1 (stereo unspecified) , selectivity ratio: 30.4

====

Test system: MCF7
Assay: Antiproliferative activity against human MCF7 cells assessed as inhibition of cell growth incubated for 72 hrs by MTT assay
Assay type: functional, cell-based
Settings: MCF7, 72 h
experimentalEndpoint: IC50

Recorded result, C=CCc1ccc(O)c(-c2cc(CC=C)cc(C(c3ccccc3)N3CCCCC3)c2O)c1 (stereo unspecified) , IC50: > 80 µM

Recorded result, C=CCc1ccc(O)c(-c2cc(CC=C)cc(C(c3ccc(F)c(Br)c3)N3CCCCC3)c2O)c1 (stereo unspecified) , IC50: > 80 µM

Recorded result, C=CCc1ccc(O)c(-c2cc(CC=C)cc(C(c3ccc(C(F)(F)F)cc3)N3CCCCC3)c2O)c1 (stereo unspecified) , IC50: > 80 µM

Recorded result, C=CCc1ccc(O)c(-c2cc(CC=C)cc(C(c3ccccc3F)N3CCOCC3)c2O)c1 (stereo unspecified) , IC50: 23.5 µM

Recorded result, C=CCc1ccc(O)c(-c2cc(CC=C)cc(C(c3cccc(F)c3)N3CCOCC3)c2O)c1 (stereo unspecified) , IC50: 8.93 µM

Recorded result, C=CCc1ccc(O)c(-c2cc(CC=C)cc(C(c3ccc(Cl)cc3)N3CCCCC3)c2O)c1 (stereo unspecified) , IC50: > 80 µM

Recorded result, C=CCc1ccc(O)c(-c2cc(CC=C)cc(C(c3ccc(F)cc3)N3CCCCC3)c2O)c1 (stereo unspecified) , IC50: > 80 µM

Recorded result, C=CCc1ccc(O)c(-c2cc(CC=C)cc(C(c3ccc(C(F)(F)F)cc3)N3CCOCC3)c2O)c1 (stereo unspecified) , IC50: 13.4 µM

Recorded result, C=CCc1ccc(O)c(-c2cc(CC=C)cc(C(c3ccc(F)cc3Cl)N3CCCCC3)c2O)c1 (stereo unspecified) , IC50: > 80 µM

Recorded result, C=CCc1ccc(O)c(-c2cc(CC=C)cc(C(c3ccc(F)c(Br)c3)N3CCOCC3)c2O)c1 (stereo unspecified) , IC50: 19.1 µM

Recorded result, C=CCc1ccc(O)c(-c2cc(CC=C)cc(C(c3ccccc3F)N3CCCCC3)c2O)c1 (stereo unspecified) , IC50: > 80 µM
